# Tested System: Gag-Pol polyprotein (Human immunodeficiency virus type 2 subtype A (isolate ROD))
# Test Method Notes: Ribonuclease H inhibitors of HIV-2 reverse transcriptase, biochemical dose response (AID 367)
# Study Conditions: HIV-2 RNase H, FRET RNA/DNA substrate cleavage
The source made the active and inactive calls. How the calls were made is not given here.
Observable: IC50

Consider the reported IC50 for these compounds:
[
  {
    "Compound": "Oc1cc(CN2COc3ccccc32)c(O)cc1CNC1CCCCC1",
    "IC50": "2.9 µM"
  },
  {
    "Compound": "COc1ccc2c(c1)N(C(=O)CN1C(=O)c3ccccc3C1=O)C(C)(C)c1ssc(=S)c1-2",
    "IC50": "3.7 µM"
  },
  {
    "Compound": "C=C(C)[C@@H]1CCc2c(O)c(O)c(=O)cc(C)c2C1",
    "IC50": "1.7 µM"
  },
  {
    "Compound": "O=C(Cc1ccccc1Cl)c1ccc(O)c(O)c1O",
    "IC50": "2 µM"
  },
  {
    "Compound": "O=c1c(O)c(-c2ccc(O)c(O)c2)oc2cc(O)cc(O)c12",
    "IC50": "9 µM"
  }
]

## Task Any idea what IC50 was measured for CC(=O)/C=C/C=C/c1ccc2c(c1)OC(CO)C(c1ccc(O)c(O)c1)O2 (stereo not given) ?
## Result inactive

## Task Any idea what IC50 was measured for `Cc1ccc(C)n1-c1ccc(O)c(C(=O)O)c1` ?
## Result 1.6 µM

====

# Tested System: Gag-Pol polyprotein (Human immunodeficiency virus type 2 subtype A (isolate ROD))
# Test Method Notes: Ribonuclease H inhibitors of HIV-2 reverse transcriptase, biochemical dose response (AID 367)
# Study Conditions: HIV-2 RNase H, FRET RNA/DNA substrate cleavage
Active and inactive are the calls of the source. No rule for the calls is given here.
A correct response names exactly one class from active, inactive

## Task Outcome logged for `O=C1NC(=S)N(c2cccc(Cl)c2)C(=O)/C1=C\C=C\c1ccco1` in this assay:
## Result active

## Task Outcome logged for `O=[N+]([O-])c1ccc2c(N=Nc3ccc4ccccc4c3O)c(O)cc(S(=O)(=O)O)c2c1` in this assay:
## Result active

## Task Outcome logged for Cc1cc(O)c2c(c1O)C(=O)C13C(=C2O)C(=O)C2C(O)C1C1C(O)C3C(=O)C3=C(O)c4c(O)cc(C)c(O)c4C(=O)C321 (centres undefined) in this assay:
## Result active

## Task Outcome logged for `Cc1ccc(-c2c(C#N)c(SCC(=O)c3ccc(O)c(O)c3)nc3c2CCCC3)o1` in this assay:
## Result active

## Task Outcome logged for `N#Cc1c(NC(=O)C(F)(F)F)sc2c3c(=O)c4ccccc4c(=O)c=3oc3ccccc3c12` in this assay:
## Result inactive

## Task Outcome logged for `Nc1cc(S(N)(=O)=O)ccc1SSc1ccc(S(N)(=O)=O)cc1N` in this assay:
## Result active

====

# Tested System: Gag-Pol polyprotein (Human immunodeficiency virus type 2 subtype A (isolate ROD)) (UniProt P04584)
# Sequence (P04584 whole entry, looked up): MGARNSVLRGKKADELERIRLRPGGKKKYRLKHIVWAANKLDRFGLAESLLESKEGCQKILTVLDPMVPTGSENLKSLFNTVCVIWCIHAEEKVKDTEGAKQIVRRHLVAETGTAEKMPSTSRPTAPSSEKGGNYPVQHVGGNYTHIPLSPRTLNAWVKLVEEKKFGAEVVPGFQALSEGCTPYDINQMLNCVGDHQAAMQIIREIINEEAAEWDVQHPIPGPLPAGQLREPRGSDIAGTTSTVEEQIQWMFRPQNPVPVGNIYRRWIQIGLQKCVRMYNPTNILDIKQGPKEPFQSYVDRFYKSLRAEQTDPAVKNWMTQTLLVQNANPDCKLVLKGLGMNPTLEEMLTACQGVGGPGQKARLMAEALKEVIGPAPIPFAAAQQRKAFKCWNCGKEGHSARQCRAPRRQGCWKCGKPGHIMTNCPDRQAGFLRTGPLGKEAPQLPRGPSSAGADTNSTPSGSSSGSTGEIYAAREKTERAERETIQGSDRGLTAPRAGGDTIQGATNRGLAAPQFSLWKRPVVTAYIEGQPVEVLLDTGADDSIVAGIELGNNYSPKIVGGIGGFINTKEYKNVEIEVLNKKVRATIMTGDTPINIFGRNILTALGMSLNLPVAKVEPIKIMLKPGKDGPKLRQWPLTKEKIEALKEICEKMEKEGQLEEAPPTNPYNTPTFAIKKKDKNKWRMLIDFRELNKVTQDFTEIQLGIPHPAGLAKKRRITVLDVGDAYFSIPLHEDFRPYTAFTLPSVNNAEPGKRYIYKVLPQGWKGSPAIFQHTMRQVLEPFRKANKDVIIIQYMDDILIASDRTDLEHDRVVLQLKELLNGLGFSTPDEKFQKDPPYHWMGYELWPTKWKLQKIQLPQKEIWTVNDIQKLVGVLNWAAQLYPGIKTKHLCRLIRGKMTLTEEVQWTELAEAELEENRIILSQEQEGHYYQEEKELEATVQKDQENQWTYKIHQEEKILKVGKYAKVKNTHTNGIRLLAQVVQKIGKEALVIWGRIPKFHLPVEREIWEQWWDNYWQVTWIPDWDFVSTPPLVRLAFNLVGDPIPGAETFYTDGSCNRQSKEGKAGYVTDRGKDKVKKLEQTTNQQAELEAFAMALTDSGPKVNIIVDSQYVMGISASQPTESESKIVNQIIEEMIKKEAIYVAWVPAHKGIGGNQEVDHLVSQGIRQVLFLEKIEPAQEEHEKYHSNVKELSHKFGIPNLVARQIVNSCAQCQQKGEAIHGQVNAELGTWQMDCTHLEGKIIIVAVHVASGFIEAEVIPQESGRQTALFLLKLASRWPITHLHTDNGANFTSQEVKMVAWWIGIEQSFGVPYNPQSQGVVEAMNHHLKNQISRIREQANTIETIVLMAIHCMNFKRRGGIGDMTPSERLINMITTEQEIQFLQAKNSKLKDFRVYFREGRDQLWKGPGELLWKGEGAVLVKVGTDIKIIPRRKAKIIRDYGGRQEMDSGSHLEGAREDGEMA
# Test Method Notes: Ribonuclease H inhibitors of HIV-2 reverse transcriptase, biochemical dose response (AID 367)
# Study Conditions: HIV-2 RNase H, FRET RNA/DNA substrate cleavage
The source made the active and inactive calls. No rule for the calls is given here.
A correct response names exactly one class from active, inactive

Past entries and their recorded results:
[
  {
    "Molecule": "O=[N+]([O-])c1cc(Cc2cc([N+](=O)[O-])c3cccnc3c2O)c(O)c2ncccc12",
    "Label Value": "active"
  },
  {
    "Molecule": "Cc1sc(NC(=O)c2ccc(Br)o2)c(C(N)=O)c1C",
    "Label Value": "active"
  }
]

## Task Outcome logged for `Oc1ccc(/C=N/Nc2nncc(-c3ccccc3)n2)c(O)c1O` in this assay:
## Result active

## Task Outcome logged for O=C(O)C1Nc2c(Cl)cc(Cl)cc2C2C=CCC12 (stereo unspecified) in this assay:
## Result inactive

====

# Tested System: Gag-Pol polyprotein (Human immunodeficiency virus type 2 subtype A (isolate ROD)) (UniProt P04584)
# Test Method Notes: Ribonuclease H inhibitors of HIV-2 reverse transcriptase, biochemical dose response (AID 367)
# Study Conditions: HIV-2 RNase H, FRET RNA/DNA substrate cleavage
Activity calls are given as the source filed them. The rule behind the calls is not given here.
A correct response names exactly one class from y (active), n (inactive)

[
  {
    "Compound": "O=C(O)C1CCCCC1c1c2ccc(=O)c(O)c-2oc2c(O)c(O)ccc12 (stereo not given)",
    "Label Value": "y"
  },
  {
    "Compound": "Cc1sc(NC(=O)Cc2ccccc2)c(C(N)=O)c1C",
    "Label Value": "y"
  },
  {
    "Compound": "Cc1ccc(N2C(=O)/C(=C/c3ccc(O)c(O)c3)SC2=S)cc1C",
    "Label Value": "y"
  },
  {
    "Compound": "CC(C)c1cccc(O)c(=O)c1",
    "Label Value": "n"
  },
  {
    "Compound": "O=C1C(Cl)=CC(=NS(=O)(=O)c2ccccc2)C=C1Cl",
    "Label Value": "y"
  }
]

## Task Outcome logged for `O=C1c2ccccc2C(=O)c2c(NC3CCCCC3)ccc(Nc3ccc(S(=O)(=O)O)cc3)c21` in this assay:
## Result y

## Task Outcome logged for `O=c1c(O)cccc2cc(O)c(O)c(O)c12` in this assay:
## Result y

## Task Outcome logged for `O=C(O)/C=C/c1c2ccc(=O)c(O)c-2oc2c(O)c(O)ccc12` in this assay:
## Result y

## Task Outcome logged for CN1CC(O)C2=CC(=O)C(=O)C=C21 (stereo not given) in this assay:
## Result y

## Task Outcome logged for `Cc1cc(Cl)ccc1OCC(=O)Nc1sc(C)c(C)c1C(N)=O` in this assay:
## Result n

## Task Outcome logged for `CN(C)S(=O)(=O)c1ccc(Nc2ccc(O)c3c2C(=O)c2c([N+](=O)[O-])ccc(O)c2C3=O)cc1` in this assay:
## Result y

## Task Outcome logged for `O=C(NC(=S)Nc1cc(-c2nc3ccccc3s2)ccc1Cl)c1ccc(F)cc1` in this assay:
## Result y

## Task Outcome logged for `O=C1NN(c2ccc(I)cc2)C(=O)/C1=C\c1ccc(O)c(O)c1` in this assay:
## Result y

## Task Outcome logged for `O=c1[nH]c2[nH]c(=S)[nH]c(=S)c2[nH]1` in this assay:
## Result y

## Task Outcome logged for `CC(=O)O[C@H](C)[C@@H]1C2=C(C(=O)C[C@]1(C)O)C(=O)c1c(ccc(-c3ccc4c(c3O)C(=O)C3=C(C4=O)[C@@H]([C@@H](C)OC(C)=O)[C@@](C)(O)CC3=O)c1O)C2=O` in this assay:
## Result n

====

# Tested System: Gag-Pol polyprotein (Human immunodeficiency virus type 2 subtype A (isolate ROD)) (UniProt P04584)
# Test Method Notes: Ribonuclease H inhibitors of HIV-2 reverse transcriptase, biochemical dose response (AID 367)
# Study Conditions: HIV-2 RNase H, FRET RNA/DNA substrate cleavage
The source made the active and inactive calls. The rule behind the calls is not given here.
A correct response names exactly one class from active, inactive

Past entries and their recorded results:
[
  {
    "Compound": "Cc1cccc(NC(=O)c2c(NC(=O)c3ccc([N+](=O)[O-])cc3)sc3c2CCCC3)c1",
    "Label Value": "active"
  },
  {
    "Compound": "Cc1nn(CC(=O)Nc2sc(C)c(C)c2C(N)=O)c(C)c1[N+](=O)[O-]",
    "Label Value": "active"
  }
]

## Task Outcome logged for `CC(C)=Cc1cc(CCC/C(C)=C/Cc2c(O)cc(C)c(C(=O)O)c2O)co1` in this assay:
## Result active

## Task Outcome logged for `CC(C)c1ccc(O)c(=O)cc1` in this assay:
## Result inactive

## Task Outcome logged for `COc1ccc2oc(=O)c(-c3csc(Nc4ccc(Br)cc4)n3)cc2c1` in this assay:
## Result active

====

# Tested System: Gag-Pol polyprotein (Human immunodeficiency virus type 2 subtype A (isolate ROD)) (UniProt P04584)
# Test Method Notes: Ribonuclease H inhibitors of HIV-2 reverse transcriptase, biochemical dose response (AID 367)
# Study Conditions: HIV-2 RNase H, FRET RNA/DNA substrate cleavage
Activity calls are given as the source filed them. No rule for the calls is given here.
A correct response names exactly one class from active, inactive

[
  {
    "Mol": "CCOC(=O)Oc1c(OC)cc(C(=O)O[C@@H]2C[C@@H]3CN4CCc5c([nH]c6cc(OC)ccc56)[C@H]4C[C@@H]3[C@H](C(=O)OC)[C@H]2OC)cc1OC",
    "Label Value": "inactive"
  }
]

## Task Outcome logged for `Cc1onc(-c2ccccc2)c1C(=O)Nc1sc(C)c(C)c1C(N)=O` in this assay:
## Result inactive

## Task Outcome logged for `C[C@H]1[C@H](O)c2c(c3c(c4c(-c5ccccc5)cc(=O)oc24)OC(C)(C)C=C3)O[C@@H]1C` in this assay:
## Result inactive

## Task Outcome logged for `CC1=NN(c2ccc(S(N)(=O)=O)cc2)C(=O)/C1=C/c1ccc(-c2ccc(Cl)cc2Cl)o1` in this assay:
## Result active

## Task Outcome logged for `COc1cc(C)cc2c(-c3c(O)cc(O)c4c3C[C@@H](C)N[C@@H]4C)cc(-c3cc(-c4c(O)cc(O)c5c4C[C@@H](C)N[C@@H]5C)c4cc(C)cc(OC)c4c3O)c(O)c12` in this assay:
## Result active

## Task Outcome logged for `O=C1C(Cl)=C/C(=N\S(=O)(=O)c2ccc(Cl)cc2)C(Cl)=C1Cl` in this assay:
## Result active

## Task Outcome logged for `CCOc1ccc(NC(=O)c2c(NC(=O)c3ccco3)sc3c2CCCCC3)cc1` in this assay:
## Result active

## Task Outcome logged for `CCCc1cc(=O)oc2c3c(c4c(c12)OC(C)(C)C=C4)O[C@@H](C)[C@H](C)[C@@H]3F` in this assay:
## Result inactive

## Task Outcome logged for `CC(C)OC(=O)c1cc(O)c(O)c(O)c1` in this assay:
## Result active

## Task Outcome logged for `C[C@]12CC[C@H]3[C@@H](CCC4=CC(=O)CC[C@@]43C)[C@@H]1CC[C@@H]2C(=O)COS(=O)(=O)c1ccc(Br)cc1` in this assay:
## Result active

## Task Outcome logged for `O=C1NC(=S)N(c2ccc(Cl)cc2)C(=O)/C1=C\C=C\c1ccccc1[N+](=O)[O-]` in this assay:
## Result active

## Task Outcome logged for `O=C1/C(=C/c2ccc(O)c(O)c2)SC(=S)N1C1CCCCC1` in this assay:
## Result active

## Task Outcome logged for `O=C1c2ccccc2C(=O)c2c1cc(O)c(O)c2O` in this assay:
## Result active

Ref: PubChem BioAssay AID367
